system: Aurora kinase A (Homo sapiens)
Sequence (whole entry): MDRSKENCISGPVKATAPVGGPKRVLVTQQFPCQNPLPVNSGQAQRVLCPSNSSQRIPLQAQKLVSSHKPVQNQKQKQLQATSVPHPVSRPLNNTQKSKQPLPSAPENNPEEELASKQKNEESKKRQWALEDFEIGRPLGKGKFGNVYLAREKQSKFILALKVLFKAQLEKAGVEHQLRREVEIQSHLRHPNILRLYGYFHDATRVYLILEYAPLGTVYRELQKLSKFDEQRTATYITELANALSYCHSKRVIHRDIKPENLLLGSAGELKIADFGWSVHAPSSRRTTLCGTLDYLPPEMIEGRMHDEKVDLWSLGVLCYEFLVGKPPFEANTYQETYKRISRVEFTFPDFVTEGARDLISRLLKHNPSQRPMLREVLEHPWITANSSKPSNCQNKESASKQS
measurementDescription: Inhibition of human Aurora A at 10 uM
property: inhibition (%)

1) CCCCCc1nc2c(-c3ccc(Cl)cc3)n[nH]c2c(=O)n1NC(=O)c1cccc(C)c1 : 93
2) CCCCc1nc2c(-c3ccc(Cl)cc3)n[nH]c2c(=O)n1NC(=O)c1ccccc1 : 84
3) O=C(Cc1ccccc1)Nn1c(CC2CCCCC2)nc2c(-c3ccc(Cl)cc3)n[nH]c2c1=O : 74
4) CCCCCc1nc2c(-c3ccc(Cl)cc3)n[nH]c2c(=O)n1NC(=O)c1ccccc1 : 91
5) Cc1cccc(C(=O)Nn2c(CC3CCCCC3)nc3c(-c4ccc(Cl)cc4)n[nH]c3c2=O)c1 : 82
